Catalogue of cytotoxicity at 70.5 h readings, one per entry.
Test Summary: Human HepG2 cell viability assay in 384 well format
Type: toxicity, cell-based
Design: dose 125 nL, time 70.5 hour; concentration not given beside the values
Condition Description: HepG2 cells, read-out: Inhibition
Unit % implied. Number only.

Consider the reported cytotoxicity at 70.5 h for these compounds:
- Compound: "Cc1ccc(-c2nc(C(=O)N3CCCC(C(N)=O)C3)cs2)c(C)c1 (stereo unspecified)"
  cytotoxicity at 70.5 h, %: -8.34
- Compound: "CCN(CC1CCOC1)C(=O)c1nc(-c2ccco2)sc1C (stereo unspecified)"
  cytotoxicity at 70.5 h, %: -2.01
- Compound: "O=C(c1csc(C2CC2)n1)N1CCCCC1Cn1cccn1 (stereo unspecified)"
  cytotoxicity at 70.5 h, %: 21.8
- Compound: "Cc1nn(C)c(C)c1CN(Cc1cccn1-c1ncccn1)C(C)C"
  cytotoxicity at 70.5 h, %: 3.54
- Compound: "COc1ccc(Br)c(C(=O)N2CCC(c3n[nH]c(C4CC4)n3)CC2)c1"
  cytotoxicity at 70.5 h, %: 3.76
- Compound: "Cc1cnc(N2CC[C@@H]3CN(Cc4ccncc4)CCO[C@@H]3C2)nc1"
  cytotoxicity at 70.5 h, %: 8.21

Q: What measured cytotoxicity at 70.5 h goes with Cc1ccc(-c2ccnc(N[C@H]3COC[C@@H]3N3CCCCC3)n2)c(C)n1 ?
A: -11.2

Q: I'd like to know its cytotoxicity at 70.5 h. The compound in question is O=C(Nc1ccc(-c2csnn2)cc1)N1CC[C@H](O)C1
A: -13.4

Q: Recorded cytotoxicity at 70.5 h for Cc1nc(C)n(CC2CCCN2Cc2ccc(F)cc2C#N)n1 (stereo unspecified) , please?
A: 5.18

Q: Fill in: cytotoxicity at 70.5 h of CC(C)n1cc(-c2nc3cc(S(=O)(=O)N4CCCC4)ccc3n2C)cn1 is ___
A: -25.1

Q: Value lookup for cytotoxicity at 70.5 h; key = O=C(c1cc(Cl)c(Br)[nH]1)N1CCN(Cc2ccco2)CC1
A: -6.08

====

Test Summary: Human HepG2 cell viability assay in 384 well format
Format: toxicity, cell-based
Set-up: dose 125 nL, time 70.5 hour; concentration not given beside the values
Condition Description: HepG2 cells, read-out: Inhibition
Endpoint Name: cytotoxicity at 70.5 h (%)
Note: unit % is implicit; provide only the numeric part.

- Molecule: "Cc1cc(C(=O)N2C[C@@H]3COC[C@]3(CN(C)C)C2)c(C)o1"
  cytotoxicity at 70.5 h, %: -17.3

API: the following record is the query input.
Q: Using the record for CCCSc1ncc(-c2nccn2CCC(N)=O)cn1 , report its cytotoxicity at 70.5 h.
A: -13.6

====

Test Summary: Human HepG2 cell viability assay in 384 well format
Type: toxicity, cell-based
Design: dose 125 nL, time 70.5 hour; concentration not given beside the values
Condition Description: HepG2 cells, read-out: Inhibition
Endpoint Name: cytotoxicity at 70.5 h (%)
Reply with just the number (in %).

Q: Recorded cytotoxicity at 70.5 h for CCc1nc(CN2CCCN(CC(=O)Nc3cccnc3)CC2)no1 , please?
A: 8.11

Q: Suppose we examine the molecule Cc1ncccc1C(=O)NC1CC(=O)N(CC(F)(F)F)C1 (stereo unspecified) ; what cytotoxicity at 70.5 h value has been reported?
A: -0.154

Q: If you can, please state the reported cytotoxicity at 70.5 h value of Cc1[nH]nc2ncc(C(=O)N3CCCC3c3noc(C(C)C)n3)cc12 (stereo unspecified) .
A: -19.5

Q: Reported cytotoxicity at 70.5 h for O=C(NC1CCCc2c1[nH]c1ccc(F)cc21)c1n[nH]c2c1CCC2 (stereo unspecified) : what is it?
A: 26.4

Q: Suppose we examine the molecule COc1ccc(CN2CCC[C@@H]3CN(C(=O)c4ccco4)C[C@@H]32)cc1 ; what cytotoxicity at 70.5 h value has been reported?
A: -10.9

Q: Reported cytotoxicity at 70.5 h for CC1CN(c2ncnc3cccc(F)c23)CCO1 (stereo unspecified) : what is it?
A: 10.6

====

Test Summary: Human HepG2 cell viability assay in 384 well format
Assay type: toxicity, cell-based
Design: dose 125 nL, time 70.5 hour; concentration not given beside the values
Condition Description: HepG2 cells, read-out: Inhibition
Endpoint Name: cytotoxicity at 70.5 h (%)
Express your answer in %, writing the number without its unit.

Solved cases (5 shown):
- Molecule: "CC(=O)N(CCc1nc(-c2cc(C(N)=O)oc2C)cs1)C(C)C"
  Observed: -8.28
- Molecule: "Cc1cc(C)n(CC2CCCN2C(=O)Cc2c(C)nn(C)c2C)n1 (stereo unspecified)"
  Observed: -0.624
- Molecule: "CCN(CC)C(=O)CN1CCc2nc(C3CCNCC3)nc(NC)c2C1"
  Observed: -4.13
- Molecule: "CN1CCC(N(CCc2ccccc2)C(=O)c2ccc(C#N)nc2)CC1"
  Observed: -3.27
- Molecule: "CN(C)C(=O)C1CCCN1CCCNC(=O)c1ccccc1F (stereo unspecified)"
  Observed: -1.14

Q: # get_value(readout='cytotoxicity at 70.5 h', item= Fc1cnc(N2CC3(CCN(CC4CC4)C3)C2)nc1 )
A: -0.963

Q: Give its cytotoxicity at 70.5 h value. Item: O=C(CC1CCCC1)N1CCOC(c2nc(-c3ncccn3)no2)C1 (stereo unspecified)
A: -1.63

Q: Consider the molecule shown here: CC(C)N(C)Cc1cn2c(n1)CN(C(=O)Cc1ccccc1)CC2 What is its recorded cytotoxicity at 70.5 h?
A: -2.24

Q: Any idea what cytotoxicity at 70.5 h was measured for Cc1c(CN2CCCC(C(=O)CCc3ccccc3)C2)cc(C#N)n1C (stereo unspecified) ?
A: 12

Q: Give the measured cytotoxicity at 70.5 h of CC(C)NC(=O)N1CCn2c(nnc2C2CCCN2)C1 (stereo unspecified) .
A: -9.64

Q: Quick check: cytotoxicity at 70.5 h of CCCN(C(=O)c1cccnc1)c1nc2c(s1)CCc1c-2cnn1C ?
A: 21

====

Test Summary: Human HepG2 cell viability assay in 384 well format
Format: toxicity, cell-based
Design: dose 125 nL, time 70.5 hour; concentration not given beside the values
Condition Description: HepG2 cells, read-out: Inhibition
Endpoint Name: cytotoxicity at 70.5 h (%)
Write down the numeric answer in % and omit the unit.

- Molecule: "Cc1nnc(N2C[C@@H](Oc3ccccn3)[C@H]3OCCC[C@H]32)s1"
  cytotoxicity at 70.5 h / %: -4.15
- Molecule: "CCN1Cc2cc3c(cc2NCCC1=O)OCO3"
  cytotoxicity at 70.5 h / %: 6.48
- Molecule: "CCC(=O)c1ccccc1NN1c2ccccc2C(=O)C1(C)OC (stereo not drawn)"
  cytotoxicity at 70.5 h / %: 4.64
- Molecule: "COC(=O)c1ccc(N2CCN(C(=O)c3cnc(C)cn3)C(C)C2)cc1 (stereo not drawn)"
  cytotoxicity at 70.5 h / %: -11
- Molecule: "O=C(NCc1ccoc1)Nc1cc(C(F)(F)F)c[nH]c1=O"
  cytotoxicity at 70.5 h / %: 1.11
- Molecule: "O=C(COCC1CC[C@H]2[C@H](CCN2c2ncccn2)O1)N1CCCC1 (stereo partly drawn)"
  cytotoxicity at 70.5 h / %: -6
- Molecule: "CC(C)(CNC(=O)COc1cccc(F)c1)C(N)=O"
  cytotoxicity at 70.5 h / %: -9.07
- Molecule: "COC(C)c1cccc(NCc2cccc(O)c2)c1 (stereo not drawn)"
  cytotoxicity at 70.5 h / %: -4
- Molecule: "CCn1cc(NC(=O)NC2CCCc3c2cnn3CCO)cn1 (stereo not drawn)"
  cytotoxicity at 70.5 h / %: -2.96
- Molecule: "Cc1cc(C(=O)OCC2CCCN2C(N)=O)c(C)o1 (stereo not drawn)"
  cytotoxicity at 70.5 h / %: -6.63

Q: Any idea what its cytotoxicity at 70.5 h is? The molecule is Cn1cc(NC(=O)Cn2cc(-c3ccccc3)ncc2=O)cn1
A: 19.6

Q: Any idea what cytotoxicity at 70.5 h was measured for CCC[C@H]1CN(S(C)(=O)=O)C[C@@H]1NC(=O)COC(C)C ?
A: -5.47

Q: Field request: cytotoxicity at 70.5 h | item: CCN(C)C(=O)c1cccc(C(=O)N(C)Cc2cccc(O)c2)c1
A: 25.8

====

Test Summary: Human HepG2 cell viability assay in 384 well format
Format: toxicity, cell-based
Design: dose 125 nL, time 70.5 hour; concentration not given beside the values
Condition Description: HepG2 cells, read-out: Inhibition
Endpoint Name: cytotoxicity at 70.5 h (%)
Express your answer in %, writing the number without its unit.

Use the examples below as a reference point.
- Molecule: "CC(C)c1cc(N(C)Cc2cc(C3CC3)on2)n2nccc2n1"
  cytotoxicity at 70.5 h, %: -8.41
- Molecule: "Cc1ccc(C(=O)N2CCc3ncnc(C)c3CC2)o1"
  cytotoxicity at 70.5 h, %: 9.18
- Molecule: "COCCCN1CC2(CCN(C(=O)Cc3csc(C)n3)CC2)CC1=O"
  cytotoxicity at 70.5 h, %: -7.77

Q: Give its cytotoxicity at 70.5 h value. Item: Cc1cc(C)n(CC(C)NC(=O)NCc2c(C)cc(C)[nH]c2=O)n1 (stereo unspecified)
A: 14.3

Q: Please give the measured cytotoxicity at 70.5 h for this molecule: COCCN1CCC2(CC1)CC(Nc1ccc(C)nn1)CO2 (stereo unspecified)
A: -2.32
